Tested on: NCI-H322M lung
Assay: NCI-60 one-dose screen, 48 h (100 = growth as untreated, 0 = no growth, -100 = all killed)
Conditions: 10 µM unless noted
About 83,000 compounds went through this panel and 20% of them were active in at least one assay; those are over-represented in the sample as a whole.
assay_readout: growth (%)
# value in %; strip the unit string

Consider the reported growth for these compounds:
compound	growth (%)
N=c1ccn2c(n1)O[C@@H]1[C@@H](O)[C@H](CO)O[C@@H]12	82.2
COc1ccc(/C(=C2\O[C@@H]([C@H](O)CO)[C@H]3OC(C)(C)O[C@@H]23)c2cc(OC)c(OC)c(OC)c2)cc1O	109
O=C1c2ccccc2C(=O)c2c1cccc2-n1nnc2ccccc21	118
Cc1nn(-c2ccccc2)c2c1oc(=O)c1cc(Cl)ccc12	90.5
COc1ccc(/C=C/C(=O)Nc2cccnc2Nc2ccc(F)cc2)cc1	101
COc1cccc2c1O/C(=C\c1c([N+](=O)[O-])ncn1C)C2=O	84.7
O=C(O)c1ccc(NC(=O)c2cccc(Nc3ccnc(C(F)(F)F)c3)c2)cc1	101
C=C1CC[C@@H]2[C@](C)(COC(C)=O)[C@H](OC(C)=O)CC[C@@]2(C)[C@@H]1CC(Nc1ccc(S(=O)(=O)Nc2cc(C)on2)cc1)C1=CCOC1=O (some centres undefined)	80.4

Check the records and state growth for C/C(=N/N=C(N)N)c1ccc(N)cc1 79.2

State, in one line, measured growth of O=C1CC(=O)N(c2ccccc2)O1 108

Please report growth for the following compound: Cc1cc(CC(=O)O)n(C)c1C(=O)c1ccc(Cl)cc1 120

Retrieve growth measured for Cc1nnc(Nc2ccc(NC(=O)Nc3ccc(Cl)cc3)cc2)c2ccccc12 and print it. 47.8

Input CC1=C(C(=O)Nc2ccccc2)C(c2ccc3c(c2)OCCO3)NC(=O)N1 (centres undefined) , output reported growth. 107

State its growth: CN(C)c1cccc2c(S(=O)(=O)N[C@H]3CC[C@H]4[C@@H]5CCc6cc(O)ccc6[C@H]5CC[C@]34C)cccc12 57.3

Answer with reported growth of COc1ccc(-c2c3c(nn2-c2ccc(N)cc2)CCc2cnoc2-3)cc1OC 103

State its growth: O=C1c2nsnc2C(=O)c2c(F)c(F)c(F)c(F)c21 26.9

Give the measured growth for CCCCCCC/C(=N\N=C(N)N)c1ccc(O)cc1 56.9

Retrieve growth measured for CCC(CC)NCCCCCNc1cc(OC)cc2cccnc12 and print it. 120

Consider the compound COC(=O)[C@]1(CCSC)N[C@H](c2cn(-c3ccccc3)nc2C)[C@@H]2C(=O)N(c3ccc(C)cc3)C(=O)[C@@H]21 . State its measured growth. 104

Assign growth to the following record: CCN(CC)c1ccc(C(O)C2=CC(=O)c3ccccc3C2=O)cc1 (centres undefined) 25.2

Answer with the recorded growth of COc1ccc(COC(C)=O)cc1 only. 112

Assign growth to the following record: O=C(/C=C/c1ccc(O)c(O)c1)N1CCN(c2ccc(Cl)cc2)CC1 85.1

Return growth for the following compound: NC(N)=NN=c1c(=O)c2ccccc2c1=O 102

Report measured growth; entry is NC(=O)SCC(=O)Nc1ccccc1-c1ccccc1 106

Please supply the value of reported growth for the item CSc1nnc(C2=CC(=O)c3ccccc3C2=O)n1-c1ccccc1 91.1
